Molecular target: rat liver COMT (Rattus norvegicus)
Construct: the organs were immediately removed and homogenised in 5 mM phosphate buffer of pH 7.8; from tissue; host or cells: rat liver homogenate (Wistar rats, dosed orally; ex vivo activity)
Sequence (P22734 whole entry): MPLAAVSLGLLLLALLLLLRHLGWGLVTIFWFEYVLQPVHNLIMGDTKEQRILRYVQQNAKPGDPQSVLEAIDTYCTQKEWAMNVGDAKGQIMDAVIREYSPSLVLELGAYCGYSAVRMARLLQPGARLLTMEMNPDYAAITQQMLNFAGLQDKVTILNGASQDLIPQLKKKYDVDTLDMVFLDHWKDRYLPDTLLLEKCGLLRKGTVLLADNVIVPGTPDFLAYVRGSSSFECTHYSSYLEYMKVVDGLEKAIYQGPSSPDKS
Assay: Rat liver COMT activity after oral administration of test compounds
Format: in vivo
Details: 3 mg/kg oral, 9 h after administration
Hi there, I'd appreciate the recorded Rat Liver COMT activity (% control) for every entry that follows.
Your answer is read as % control, so omit the unit and give the number.

Q) Determine its reported Rat Liver COMT activity (% control): O=[N+]([O-])c1cc(-c2nc(-c3ccc[n+]([O-])c3C(F)(F)F)no2)cc(O)c1O [Compound 42]
A) 30.9

Q) Determine its reported Rat Liver COMT activity (% control): Cc1c(Cl)c(C)[n+]([O-])c(Br)c1-c1noc(-c2cc(O)c(O)c([N+](=O)[O-])c2)n1 [Compound 47]
A) 8.2

Q) Determine its reported Rat Liver COMT activity (% control): Cc1c(C)c(C)[n+]([O-])c(Cl)c1-c1noc(-c2cc(O)c(O)c([N+](=O)[O-])c2)n1 [Compound 41]
A) 39.7

Q) Determine its reported Rat Liver COMT activity (% control): Cc1c(-c2noc(-c3cc(O)c(O)c([N+](=O)[O-])c3)n2)ccc(C(F)(F)F)[n+]1[O-] [Compound 29]
A) 56.4

Data credit: patent US20200102295A1
